assay.info: Lipophilicity, log K at 10 uM after 40 mins by HPLC analysis
Assay type: physicochemical
assay.metric: log K

Here is how some compounds turned out for log K.
smiles.input	result.value
CC1(C)N2Cc3[nH]c4ccccc4c3C[C@H]2C(=O)N1[C@@H](Cc1ccc(O)cc1)C(=O)OCc1ccccc1	0.49
CC(C)C[C@@H](C(=O)OCc1ccccc1)N1C(=O)[C@@H]2Cc3c([nH]c4ccccc34)CN2C1(C)C	0.92

P = CC1(C)N2Cc3[nH]c4ccccc4c3C[C@H]2C(=O)N1[C@@H](COCc1ccccc1)C(=O)OCc1ccccc1
Q = CC1(C)N2Cc3[nH]c4ccccc4c3C[C@H]2C(=O)N1[C@@H](CC(N)=O)C(=O)OCc1ccccc1
Identify the item whose log K is the smaller number: P or Q Indicate your choice by writing its label.
Q
(Q: 0.16, P: 1.02)
